Recorded CTG-3D luminescence at 96 h, one value per entry.
tested on: HCI-011.E2 (organoid from an ER-positive breast cancer xenograft); experiment: CTG-3D luminescence at 96 h relative to day-0 seeding control (ratio to day 0); higher = more growth / less cytotoxicity; PDxO 3D drug screen, 96 h, CTG-3D normalised to day-0 seeding control.; conditions: 12.5 pM
recorded-metric: CTG-3D luminescence at 96 h

CC(C)(C(=O)NCC(F)(F)C(F)(F)F)C(=O)N[C@@H]1C(=O)Nc2ccccc2-c2ccccc21: 1.55
O=C(O)C1(C(=O)O)CCC1.[NH2-].[NH2-].[Pt+2]: 1.65
Cc1cc(Nc2ncnc3ccc(NC4=NC(C)(C)CO4)cc23)ccc1Oc1ccn2ncnc2c1: 1.7
CS(=O)(=O)c1ccc(C(=O)Nc2ccc(Cl)c(-c3ccccn3)c2)c(Cl)c1: 1.44

====

tested on: HCI-027 (organoid from a triple-negative breast cancer xenograft); experiment: CTG-3D luminescence at 96 h relative to day-0 seeding control (ratio to day 0); higher = more growth / less cytotoxicity; PDxO 3D drug screen (set 2), 96 h, CTG-3D normalised to day-0 seeding control.; conditions: 625 fM; days in culture: 176
recorded-metric: CTG-3D luminescence at 96 h

CC(C)n1nc(-c2ccc3oc(N)nc3c2)c2c(N)ncnc21 [sapanisertib]: 2.69
C[C@@H](Nc1cc(F)cc(F)c1)c1cc(C(=O)N(C)C)cc2c(=O)cc(N3CCOCC3)oc12 [AZD-8186]: 1.89
CO[C@H]1C[C@@H]2CC[C@@H](C)[C@@](O)(O2)C(=O)C(=O)N2CCCC[C@H]2C(=O)O[C@H]([C@H](C)C[C@@H]2CC[C@@H](OCCO)[C@H](OC)C2)CC(=O)[C@H](C)/C=C(\C)[C@@H](O)[C@@H](OC)C(=O)[C@H](C)C[C@H](C)/C=C/C=C/C=C/1C [everolimus]: 2.75
CO[C@H]1C[C@@H]2CC[C@@H](C)[C@@](O)(O2)C(=O)C(=O)N2CCCC[C@H]2C(=O)O[C@H]([C@H](C)C[C@@H]2CC[C@@H](O)[C@H](OC)C2)CC(=O)[C@H](C)/C=C(\C)[C@@H](O)[C@@H](OC)C(=O)[C@H](C)C[C@H](C)/C=C/C=C/C=C/1C [rapamycin]: 2.21
Cc1c(CN2CCN(C(=O)[C@H](C)O)CC2)sc2c(N3CCOCC3)nc(-c3cnc(N)nc3)nc12 [apitolisib]: 1.29

====

tested on: HCI-024 (organoid from a breast cancer xenograft); assay: CTG-3D luminescence at 96 h relative to day-0 seeding control (ratio to day 0); higher = more growth / less cytotoxicity; PDxO 3D drug screen, 96 h, CTG-3D normalised to day-0 seeding control.; details: 0.1 µM; days in culture: 122
Recorded CTG-3D luminescence at 96 h, one value per entry.
recorded-metric: CTG-3D luminescence at 96 h

Cc1nc(-c2cn3c(n2)-c2ccc(-c4cnn(C(C)(C)C(N)=O)c4)cc2OCC3)n(C(C)C)n1: 1.88
Cc1cc(Nc2ncc(Cl)c(Nc3ccccc3S(=O)(=O)C(C)C)n2)c(OC(C)C)cc1C1CCNCC1: 1.88
NC(=O)c1cccc2cn(-c3ccc([C@@H]4CCCNC4)cc3)nc12: 1.71
O=C(O)C1(C(=O)O)CCC1.[NH2-].[NH2-].[Pt+2]: 1.65
CC(=O)O[C@H]1C(=O)[C@@]2(C)[C@H]([C@H](OC(=O)c3ccccc3)[C@]3(O)C[C@H](OC(=O)[C@H](O)[C@@H](NC(=O)c4ccccc4)c4ccccc4)C(C)=C1C3(C)C)[C@]1(OC(C)=O)CO[C@@H]1C[C@@H]2O: 1.34
CC1(C)CCC(c2ccc(Cl)cc2)=C(CN2CCN(c3ccc(C(=O)NS(=O)(=O)c4ccc(N[C@H](CCN5CCOCC5)CSc5ccccc5)c(S(=O)(=O)C(F)(F)F)c4)cc3)CC2)C1: 1.88
NC(=O)Nc1cc(-c2cccc(F)c2)sc1C(=O)N[C@H]1CCCNC1: 0.853
C[C@]12CC[C@@H]3c4ccc(O)cc4C[C@@H](CCCCCCCCC[S+]([O-])CCCC(F)(F)C(F)(F)F)[C@H]3[C@@H]1CC[C@@H]2O (stereo not given in full): 1.84
C[C@H](NC(=O)CCC(F)(F)F)C(=O)N[C@@H]1C(=O)N(CCO)c2ncccc2-c2ccccc21: 1.72
CC(C)(C(=O)NCC(F)(F)C(F)(F)F)C(=O)N[C@@H]1C(=O)Nc2ccccc2-c2ccccc21: 1.67

====

Recorded CTG-3D luminescence at 96 h, one value per entry.
test system: HCI-001 (organoid from a triple-negative breast cancer xenograft); assay: CTG-3D luminescence at 96 h relative to day-0 seeding control (ratio to day 0); higher = more growth / less cytotoxicity; PDxO 3D drug screen, 96 h, CTG-3D normalised to day-0 seeding control.; conditions: 0.005 µM; days in culture: 364
recorded-metric: CTG-3D luminescence at 96 h

Nc1ccn([C@@H]2O[C@H](CO)[C@@H](O)C2(F)F)c(=O)n1: 1.3
CC(C)n1nc(-c2ccc3oc(N)nc3c2)c2c(N)ncnc21: 1.21
Cc1nc(-c2cn3c(n2)-c2ccc(-c4cnn(C(C)(C)C(N)=O)c4)cc2OCC3)n(C(C)C)n1: 1.37
COc1cccc2c1C(=O)c1c(O)c3c(c(O)c1C2=O)C[C@@](O)(C(=O)CO)C[C@@H]3O[C@H]1C[C@H](N)[C@H](O)[C@H](C)O1: 1.3
NC(=O)c1cccc2cn(-c3ccc([C@@H]4CCCNC4)cc3)nc12: 1.69
C[C@H](NC(=O)CCC(F)(F)F)C(=O)N[C@@H]1C(=O)N(CCO)c2ncccc2-c2ccccc21: 1.35
CC[C@H](NC(=O)[C@H](C)NC)C(=O)N1C[C@@H](O)C[C@H]1Cc1c(-c2[nH]c3cc(F)ccc3c2C[C@@H]2C[C@H](O)CN2C(=O)[C@H](CC)NC(=O)[C@H](C)NC)[nH]c2cc(F)ccc12: 1.4

====

tested on: HCI-001; test: CTG-3D luminescence at 96 h relative to day-0 seeding control (ratio to day 0); higher = more growth / less cytotoxicity; PDxO 3D drug screen, 96 h, CTG-3D normalised to day-0 seeding control.; conditions: 1 µM; days in culture: 346
recorded-metric: CTG-3D luminescence at 96 h

O=C(/C=C/c1cccnc1)NCCCCC1CCN(C(=O)c2ccccc2)CC1: 0.0715
CC(=O)O[C@H]1C(=O)[C@@]2(C)[C@H]([C@H](OC(=O)c3ccccc3)[C@]3(O)C[C@H](OC(=O)[C@H](O)[C@@H](NC(=O)c4ccccc4)c4ccccc4)C(C)=C1C3(C)C)[C@]1(OC(C)=O)CO[C@@H]1C[C@@H]2O: 0.791
CCc1c2c(nc3ccc(O)cc13)-c1cc3c(c(=O)n1C2)COC(=O)[C@]3(O)CC: 0.105
O=C(c1ccc(F)c(F)c1Nc1ccc(I)cc1F)N1CC(O)([C@@H]2CCCCN2)C1: 1.13
Cc1cc(Nc2ncnc3ccc(NC4=NC(C)(C)CO4)cc23)ccc1Oc1ccn2ncnc2c1: 1.24
Nc1ccn([C@@H]2O[C@H](CO)[C@@H](O)C2(F)F)c(=O)n1: 0.429
C=CCn1c(=O)c2cnc(Nc3ccc(N4CCN(C)CC4)cc3)nc2n1-c1cccc(C(C)(C)O)n1: 1.48

====

tested on: HCI-019 (organoid from a triple-negative breast cancer xenograft); experiment: CTG-3D luminescence at 96 h relative to day-0 seeding control (ratio to day 0); higher = more growth / less cytotoxicity; PDxO 3D drug screen, 96 h, CTG-3D normalised to day-0 seeding control.; settings: 12.5 pM; days in culture: 131
Recorded CTG-3D luminescence at 96 h, one value per entry.
recorded-metric: CTG-3D luminescence at 96 h

CNC(=O)c1cccc(-c2ccc3c(N4CCOC[C@@H]4C)nc(N4CCOC[C@@H]4C)nc3n2)c1: 2.64
C=CCn1c(=O)c2cnc(Nc3ccc(N4CCN(C)CC4)cc3)nc2n1-c1cccc(C(C)(C)O)n1: 2.63
C[C@H](NC(=O)CCC(F)(F)F)C(=O)N[C@@H]1C(=O)N(CCO)c2ncccc2-c2ccccc21: 2.19
Nc1ccn([C@@H]2O[C@H](CO)[C@@H](O)C2(F)F)c(=O)n1: 2.42
CC[C@H](NC(=O)[C@H](C)NC)C(=O)N1C[C@@H](O)C[C@H]1Cc1c(-c2[nH]c3cc(F)ccc3c2C[C@@H]2C[C@H](O)CN2C(=O)[C@H](CC)NC(=O)[C@H](C)NC)[nH]c2cc(F)ccc12: 2.64
CCN(c1cc(C#CCN2CCOCC2)cc(C(=O)NCc2c(C)cc(C)[nH]c2=O)c1C)[C@H]1CC[C@H](N(C)CCOC)CC1: 2.63

====

system: HCI-019; assay: CTG-3D luminescence at 96 h relative to day-0 seeding control (ratio to day 0); higher = more growth / less cytotoxicity; PDxO 3D drug screen, 96 h, CTG-3D normalised to day-0 seeding control.; conditions: 0.005 µM; days in culture: 152
Recorded CTG-3D luminescence at 96 h, one value per entry.
recorded-metric: CTG-3D luminescence at 96 h

Cc1cc(Nc2ncnc3ccc(NC4=NC(C)(C)CO4)cc23)ccc1Oc1ccn2ncnc2c1: 3.04
CCc1c2c(nc3ccc(O)cc13)-c1cc3c(c(=O)n1C2)COC(=O)[C@]3(O)CC: 1.51
C[C@]12CC[C@@H]3c4ccc(O)cc4C[C@@H](CCCCCCCCC[S+]([O-])CCCC(F)(F)C(F)(F)F)[C@H]3[C@@H]1CC[C@@H]2O (some centres undefined): 3.24
CC(C)(C(=O)NCC(F)(F)C(F)(F)F)C(=O)N[C@@H]1C(=O)Nc2ccccc2-c2ccccc21: 3.36
